- Tested on: K86415-001-R-J1-PDC complex spheroids, viability
- ASSAY_PROCEDURE: Anticancer human tumor K86415-001-R-J1-PDC patient-derived lung adenocarcinoma cell line growth inhibition [RAS]
- RUN_PARAMETERS: second compound 0.0316 µM; first compound 0.3 µM; active compounds read low
REPORTED_METRIC: viability, T/C

Lookup: viability, T/C / K86415-001-R-J1-PDC complex spheroids, viability / CC1(C)CCC(Nc2ncc(C(F)(F)F)c(-c3c[nH]c4c(P(C)(C)=O)c(C#N)ccc34)n2)CN1 (centres undefined) + C#Cc1c(F)ccc2cc(O)cc(-c3ncc4c(N5CC6CCC(C5)N6)nc(OCC56CCCN5CC(F)C6)nc4c3F)c12
55.5%

For K86415-001-R-J1-PDC complex spheroids, viability, provide viability, T/C of CCc1c2c(nc3ccc(O)cc13)-c1cc3c(c(=O)n1C2)COC(=O)[C@]3(O)CC + C=CC(=O)N1CCN(c2nc(OCC3CCCN3C)nc3c(F)c(-c4nc(N)cc(C)c4C(F)(F)F)c(Cl)cc23)C(C)C1 please.
4.32%

Identify the measured viability, T/C of CC1(C)CCC(Nc2ncc(C(F)(F)F)c(-c3c[nH]c4c(P(C)(C)=O)c(C#N)ccc34)n2)CN1 (centres undefined) + C=CC(=O)N1CCN(c2nc(OCC3CCCN3C)nc3c(F)c(-c4nc(N)cc(C)c4C(F)(F)F)c(Cl)cc23)C(C)C1 for K86415-001-R-J1-PDC complex spheroids, viability.
16.5%

Can you look up viability, T/C on K86415-001-R-J1-PDC complex spheroids, viability for CCc1c2c(nc3ccc(O)cc13)-c1cc3c(c(=O)n1C2)COC(=O)[C@]3(O)CC + C#Cc1c(F)ccc2cc(O)cc(-c3ncc4c(N5CC6CCC(C5)N6)nc(OCC56CCCN5CC(F)C6)nc4c3F)c12 ?
5.25%

---

Field: viability, T/C. Provide a value for each of the molecules that follow.
- System: K86415-001-R-J1-PDC complex spheroids, viability
- ASSAY_PROCEDURE: Anticancer human tumor K86415-001-R-J1-PDC cell line growth inhibition [RAS];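 also: spheroids exposed to agents for seven days before readout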
- RUN_PARAMETERS: second compound 0.316 µM; first compound 1 µM; active compounds read low
State the answer as a number, implicitly in %.

Please report the recorded viability, T/C for CCN1CCN(Cc2ccc(Nc3ncc(F)c(-c4cc(F)c5nc(C)n(C(C)C)c5c4)n3)nc2)CC1 + C#Cc1c(F)ccc2cc(O)cc(-c3ncc4c(N5CC6CCC(C5)N6)nc(OCC56CCCN5CC(F)C6)nc4c3F)c12 .
61

Record request: viability, T/C value, item Nc1ccn(C2OC(CO)C(O)C2(F)F)c(=O)n1 (stereo not given) + C=CC(=O)N1CCN(c2nc(OCC3CCCN3C)nc3c(F)c(-c4nc(N)cc(C)c4C(F)(F)F)c(Cl)cc23)C(C)C1
8.63

Name the recorded viability, T/C for NC1c2ccccc2OC12CCN(c1cnc3c(N4CCCc5ncccc54)n[nH]c3n1)CC2 (stereo not given) + C=CC(=O)N1CCN(c2nc(OCC3CCCN3C)nc3c(F)c(-c4nc(N)cc(C)c4C(F)(F)F)c(Cl)cc23)C(C)C1 .
4.12

Param item = C=CC(=O)N1CCN(c2nc(OCC3CCCN3C)nc3c(F)c(-c4nc(N)cc(C)c4C(F)(F)F)c(Cl)cc23)C(C)C1 (stereo not given) + C#Cc1c(F)ccc2cc(O)cc(-c3ncc4c(N5CC6CCC(C5)N6)nc(OCC56CCCN5CC(F)C6)nc4c3F)c12 ; retrieve measured viability, T/C.
9.63

Look up viability, T/C: O=C(c1ccc(F)c(F)c1Nc1ccc(I)cc1F)N1CC(O)([C@@H]2CCCCN2)C1 + C=CC(=O)N1CCN(c2nc(OCC3CCCN3C)nc3c(F)c(-c4nc(N)cc(C)c4C(F)(F)F)c(Cl)cc23)C(C)C1
1.9
